# test protocol: Therapeutic index, ratio of IC50 for cytotoxicity against mouse 3T3-L1 cells to EC50 for anti-adipogenic in mouse 3T3-L1 cells
# Format: toxicity, cell-based
# condition parameters: read-out: Ratio IC50/EC50
value kind: selectivity ratio

CC(=O)c1c(-c2nc(C)cc(NCCCN(C)C)n2)[nH]c2ccccc12 : 151

Next compound, please.
Exercise: Report selectivity ratio for CC(=O)c1c(-c2nc(NCCN3CCCC3)c3ccccc3n2)[nH]c2ccccc12 please.
Key: 190

---

# test protocol: Cytotoxicity against mouse 3T3-L1 cells assessed as reduction in cell viability incubated for 24 hrs by Sulforhodamine B assay
# Assay type: toxicity, cell-based
value kind: IC50 at 24 h (µM)
Reply numerically in µM, unit not repeated.

CC(=O)c1c(-c2nc(C)c(C)c(NCCCN(C)C)n2)[nH]c2ccccc12 : 30.4
CC(=O)c1c(-c2nc(NCCN3CCCC3)c3ncn(C)c3n2)[nH]c2ccccc12 : 65.5
CC(=O)c1c(-c2nc(NCCN3CCCC3)c3ccccc3n2)[nH]c2ccccc12 : 8.49

Next compound, please.
Exercise: Report IC50 at 24 h for CC1=C(O)C(=O)C=C2C1=CC=C1[C@@]2(C)CC[C@@]2(C)[C@@H]3C[C@](C)(C(=O)O)CC[C@]3(C)CC[C@]12C please.
Key: 0.73

---

# test protocol: Therapeutic index, ratio of IC50 for cytotoxicity against mouse 3T3-L1 cells to EC50 for anti-adipogenic in mouse 3T3-L1 cells
# Type: toxicity, cell-based
# condition parameters: read-out: Ratio IC50/EC50
Dear colleague, classification is by selectivity ratio, with ranges listed here: lower range = under 100, middle range = from 100 up to 200, upper range = 200 and over

CC(=O)c1c(-c2nc(NCCN(C)C)c3ccccc3n2)[nH]c2ccccc12 : lower range

Exercise: Looking at CC(=O)c1c(-c2nc(NCCN3CCCC3)c3ncn(C)c3n2)[nH]c2ccccc12 , which class would you pick?
Key: upper range

Exercise: Same lookup for CC(=O)c1c(-c2nccc(NCCN3CCCC3)n2)[nH]c2ccccc12 , please.
Key: upper range

Exercise: Same lookup for CC(=O)c1c(-c2ncc(C)c(NCCN3CCCC3)n2)[nH]c2ccccc12 , please.
Key: upper range

Exercise: Same lookup for CC1=C(O)C(=O)C=C2C1=CC=C1[C@@]2(C)CC[C@@]2(C)[C@@H]3C[C@](C)(C(=O)O)CC[C@]3(C)CC[C@]12C [CELASTROL] , please.
Key: lower range

Exercise: Same lookup for CC(=O)c1c(-c2ncc(F)c(NCCN3CCCC3)n2)[nH]c2ccccc12 , please.
Key: upper range

Exercise: Same lookup for CC(=O)c1c(-c2nc(NCCCN(C)C)c3ncn(C)c3n2)[nH]c2ccccc12 , please.
Key: middle range

Exercise: Same lookup for CC(=O)c1c(-c2nccc(NCCN(C)C)n2)[nH]c2ccccc12 , please.
Key: middle range
